B1: Osa-1-4 twister ribozyme (parent)
chain: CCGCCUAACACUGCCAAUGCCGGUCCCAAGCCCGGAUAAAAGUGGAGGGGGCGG

# Variants of: B1
# test protocol: self-cleavage, relative activity (ratio to wild type); higher = more cleavage; co-transcriptional
Assign class by self-cleavage: not lower than 0.2 means Y; lower than 0.2 means N.

CCGCCUAACACUGCAAAGGCCGGUCCCAAGCCCGGAUAAAAGUGGAGGGGGCGG [C15A U18G]; Y
CCGCCUAACACUGCCAAUGCCGCUCCCAAGCCCGGAUAAAAGUGGAGGCGGCGG [G23C G49C]; N
CCGCCUAACACUGCCAAUGCCGGUCCCAAGCCCGGAUAGAAGUGGAGGGGACGG [A39G G51A]; Y
CCGCCUAACACUGCCAUUGCCGGUCCCAAGUCCGGAUAAAAGUGGAGGGGGCGG [A17U C31U]; Y
CCGCCUAACACUGCCAAUACCGGUCCCUAGCCCGGAUAAAAGUGGAGGGGGCGG [A28U G19A]; Y

Query: State whether the measured self-cleavage reaches 0.2, counting equality as reaching it, for CCGCCUAACACUGCCAAUGCCGGUCCCAAGCCCGGAUAAAAAUGGAGGGGGCCG [G42A G53C]
Response: N

Query: Record CCGCCUAACACUGCGAAUGCCGGUCCCAAGCUCGGAUAAAAGUGGAGGGGGCGG [C15G C32U] ; criterion: self-cleavage no lower than 0.2. Met?
Response: N
